testedTarget: GRIA1/CACNG8 (Homo sapiens)
assayDetails: Negative allosteric modulation of recombinant human GluA1 flop isoform/TARPgamma8 expressed in HEK293 cells assessed as inhibition of glutamate-induced calcium flux at 100 uM by calcium 5/6 dye based FLIPR assay
statedConditions: read-out: IC50
quantityKind: IC50
Param answer (str): number followed by unit.

Briefly, IC50 measured for `O=C1Cc2cc(-c3c(-c4ccc(F)cc4)nc4c(N5CCC(F)CC5)nccn34)ccc2N1` : 0.1 nM

* * *

assayDetails: Efflux ratio of apparent permeability across basolateral to apical side over apical to basolateral side in MDCK-MDR1 cells at 5 uM measured after 60 mins by LC-MS/MS analysis
Type: ADME, cell-based, Canis lupus familiaris
statedConditions: dog
quantityKind: efflux ratio at 1 h, 5 µM
Output: the number by itself.

Briefly, efflux ratio at 1 h, 5 µM measured for `CC(=O)N1CCN(c2nccc3c(-c4ccc5c(c4)CC(=O)N5)c(-c4ccc(F)cc4)nn23)CC1` : 34
